pIC50 by entry:
assay: Inhibition of pseudotype HIV1 integrase strand transfer activity assessed as reduction in viral replication in HIV1 infected human CIP4 cells after 2 days by luciferase reporter gene assay
pIC50: −log10 of the molar value.
property name: pIC50

• NC(=O)c1c2c(c(O)c3ncc(Cc4cccc(Cl)c4F)cc13)C(=O)N1CCC[C@@H]1C2 = 8.10
• N#Cc1c2c(c(O)c3ncc(Cc4cccc(Cl)c4F)cc13)C(=O)N1CCCC[C@H]21 = 7.82
• N#Cc1c2c(c(O)c3ncc(Cc4cccc(Cl)c4F)cc13)C(=O)N1CCCN1C2 = 8.66
• N#Cc1c2c(c(O)c3ncc(Cc4cccc(Cl)c4F)cc13)C(=O)N1CCCC[C@@H]21 = 7.74
• Cn1c(=O)c(C(=O)NCCO)c(O)c2ncc(Cc3ccc(F)cc3)cc21 = 8.52
